Values were extracted from ChEMBL document CHEMBL4325857.

protocol-description: Unbound plasma concentration in mouse at 1 mg/kg, iv
Assay type: ADME, organism-based
metric: fraction unbound

[
  {
    "compound": "CCN1CC(C(=O)NC(C)CCc2ccc(Cl)c(Cl)c2)=C(O)C1=O (stereo not drawn)",
    "test-value": 0.023
  },
  {
    "compound": "O=C(N[C@H]1CC[C@@H](c2ccccc2)CC1)c1[nH]c(=O)[nH]c(=O)c1O",
    "test-value": 0.15
  },
  {
    "compound": "Nc1c(C(=O)N[C@@H]2CCCc3c(OCc4ccccc4)cccc32)[nH]c(=O)[nH]c1=O",
    "test-value": 0.015
  }
]

* * *

system-name: Endothelial lipase (Homo sapiens)
Sequence (Q9Y5X9 whole entry): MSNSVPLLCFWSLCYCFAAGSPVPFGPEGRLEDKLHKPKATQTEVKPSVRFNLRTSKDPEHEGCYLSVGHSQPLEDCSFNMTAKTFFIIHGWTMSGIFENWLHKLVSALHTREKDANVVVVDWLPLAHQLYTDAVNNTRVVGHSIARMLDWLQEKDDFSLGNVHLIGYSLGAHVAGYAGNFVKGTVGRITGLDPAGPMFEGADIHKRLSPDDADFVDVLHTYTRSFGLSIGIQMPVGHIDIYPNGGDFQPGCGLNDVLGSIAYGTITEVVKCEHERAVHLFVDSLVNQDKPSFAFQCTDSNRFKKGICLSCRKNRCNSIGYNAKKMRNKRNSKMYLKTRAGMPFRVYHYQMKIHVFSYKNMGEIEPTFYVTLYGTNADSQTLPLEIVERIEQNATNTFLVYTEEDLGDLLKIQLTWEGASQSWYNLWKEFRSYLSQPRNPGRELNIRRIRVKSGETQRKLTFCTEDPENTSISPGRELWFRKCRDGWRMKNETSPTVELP
protocol-description: Inhibition of recombinant human endothelial lipase expressed in African green monkey COS7 cells using HDL as substrate pretreated for 10 mins followed by substrate addition and measured after 30 mins by LC/MS/MS analysis
pIC50: −log10 of the molar value.
metric: pIC50

[
  {
    "compound-string": "O=C(N[C@H]1CC[C@@H](c2ccccc2)CC1)c1[nH]c(=O)n(Cc2ccccc2)c(=O)c1O",
    "system-name": "Endothelial lipase (Homo sapiens)",
    "test-value": 6.93
  },
  {
    "compound-string": "O=C(N[C@H]1CC[C@@H](c2ccccc2)CC1)c1[nH]c(=O)n(CCO)c(=O)c1O",
    "system-name": "Endothelial lipase (Homo sapiens)",
    "test-value": 7.10
  },
  {
    "compound-string": "Nc1c(C(=O)N[C@@H]2CC[C@H](c3ccccc3)C2)[nH]c(=O)[nH]c1=O",
    "system-name": "Endothelial lipase (Homo sapiens)",
    "test-value": 6.76
  },
  {
    "compound-string": "Nc1c(C(=O)N[C@@H]2CCc3cc(OCc4ccccc4)ccc32)[nH]c(=O)[nH]c1=O",
    "system-name": "Endothelial lipase (Homo sapiens)",
    "test-value": 7.77
  },
  {
    "compound-string": "Nc1c(C(=O)N[C@H]2CC[C@@H](c3ccc(OCc4ccccc4)cc3)CC2)[nH]c(=O)[nH]c1=O",
    "system-name": "Endothelial lipase (Homo sapiens)",
    "test-value": 7.68
  },
  {
    "compound-string": "Nc1c(C(=O)N[C@H]2CC[C@@H](c3ccccc3)CC2)[nH]c(=O)[nH]c1=O",
    "system-name": "Endothelial lipase (Homo sapiens)",
    "test-value": 7.04
  },
  {
    "compound-string": "CC(C)Cn1c(=O)[nH]c(C(=O)N[C@H]2CC[C@@H](c3ccccc3)CC2)c(O)c1=O",
    "system-name": "Endothelial lipase (Homo sapiens)",
    "test-value": 7.23
  },
  {
    "compound-string": "CO[C@]1(c2ccc(F)cc2)CC[C@@H](NC(=O)c2[nH]c(=O)[nH]c(=O)c2N)CC1",
    "system-name": "Endothelial lipase (Homo sapiens)",
    "test-value": 6.00
  },
  {
    "compound-string": "Nc1c(C(=O)N[C@@H]2CC[C@H](c3ccccc3)c3ccccc32)[nH]c(=O)[nH]c1=O",
    "system-name": "Endothelial lipase (Homo sapiens)",
    "test-value": 7.30
  }
]
